Some compounds, each annotated with its measured % degradation of peptidomimetics in 24 h when incubated with liver microsomes.
- testMethodNotes: Stability in liver microsomes
- Assay type: in vitro ADME
- experimentalSetup: 2 μM peptidomimetic, human liver microsomes, 37° C., 24 h
Give the value, in units of %, as a plain number.

Below, each entry is followed by its recorded % degradation of peptidomimetics in 24 h when incubated with liver microsomes result.
INPUT: Recorded % degradation of peptidomimetics in 24 h when incubated with liver microsomes of CCc1cc(OC)ccc1-c1ccc(CC(NC(=O)[C@H](CC(=O)O)NC(=O)[C@H](CO)NC(=O)[C@@H](NC(=O)[C@H](Cc2ccccc2)NC(=O)[C@@H](NC(=O)CNC(=O)[C@H](CCC(N)=O)NC(=O)C2(NC(=O)[C@@H](N)Cc3c[nH]cn3)CC2)[C@@H](C)O)[C@@H](C)O)C(=O)NC(CCCc2ccc(F)cc2C(F)(F)F)C(N)=O)cc1 (single isomer, unassigned) , please.
OUTPUT: 77

INPUT: Moving on to CCc1cc(OC)ccc1-c1ccc(CC(C(=O)N(C)C(CCCc2ccccc2)C(N)=O)N(C)C(=O)[C@H](CC(=O)O)N(C)C(=O)[C@H](CO)NC(=O)[C@@H](NC(=O)C(C)(Cc2ccccc2F)NC(=O)[C@@H](NC(=O)CNC(=O)C(CCC#N)NC(=O)C(C)(C)NC(=O)[C@@H](N)Cc2c[nH]cn2)[C@H](C)O)[C@H](C)O)cc1 (single isomer, unassigned)
OUTPUT: 83

Now look at this entry.
INPUT: Recorded % degradation of peptidomimetics in 24 h when incubated with liver microsomes of CCc1cc(OC)ccc1-c1ccc(CC(NC(=O)[C@H](CC(=O)O)NC(=O)[C@H](CO)NC(=O)[C@@H](NC(=O)C(C)(Cc2ccccc2F)NC(=O)[C@@H](NC(=O)CNC(=O)C(CCC#N)NC(=O)C(C)(C)NC(=O)[C@H](Cc2c[nH]cn2)NC(C)=O)[C@@H](C)O)[C@@H](C)O)C(=O)NC(CCCc2ccccc2)C(N)=O)cc1 (single isomer, unassigned) , please.
OUTPUT: 33
